- Tested on: HCT-116
- test-description: Antiproliferative activity against human HCT116 cells after 5 days by CellTiter-Glo Luminescent Cell Viability Assay
- Assay type: functional, cell-based
- protocol-conditions: HCT-116, 120 h
property-name: IC50 (nM)
// note: answer is a bare numeric in nM

## Task I have this molecule here, Cc1cc(Nc2nn(C(C)C)c(=O)c3cc(OCCN4CCOCC4)ccc23)n[nH]1 , and I need its recorded IC50.
## Result 7

###

- target-of-assay: Aurora kinase A (Homo sapiens)
- Sequence (O14965 whole entry): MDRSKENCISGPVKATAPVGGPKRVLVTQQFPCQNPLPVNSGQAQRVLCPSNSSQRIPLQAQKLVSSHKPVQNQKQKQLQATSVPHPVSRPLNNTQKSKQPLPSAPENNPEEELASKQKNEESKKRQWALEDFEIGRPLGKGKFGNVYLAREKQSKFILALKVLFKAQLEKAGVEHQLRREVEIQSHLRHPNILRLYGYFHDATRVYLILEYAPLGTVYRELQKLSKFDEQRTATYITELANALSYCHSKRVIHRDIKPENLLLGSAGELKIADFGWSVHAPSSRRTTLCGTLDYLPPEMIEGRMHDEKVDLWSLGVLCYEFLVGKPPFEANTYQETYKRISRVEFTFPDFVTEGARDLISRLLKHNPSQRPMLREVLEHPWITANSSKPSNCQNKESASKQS
property-name: IC50 (nM)
// note: answer is a bare numeric in nM

## Task I have this compound here, Cc1cc(Nc2nn(C(C)C)c(=O)c3cc(OCCN4CCOCC4)ccc23)n[nH]1 , and I need its recorded IC50.
## Result 420
